biological target: S100A11; assay: pooled miR-30 sensor sort-seq; sequence = guide strand; conditions: shRNA; also: reference of the scale not given here
recorded endpoint: sensor-assay potency score (higher = more potent)
API doc: respond with a numeric literal and nothing else, no unit.

Examples with answers:
- biopolymer sequence: "TTCTGGTTCTTTGTGAAGGCAG"
  data value: -0.487
- biopolymer sequence: "ATCCTTTCCAGCATACTTCTGG"
  data value: -0.568
- biopolymer sequence: "TATAACCATCCTTTCCAGCATA"
  data value: -1.17
- biopolymer sequence: "TTGTGAAGGCAGCTAGTTCTGT"
  data value: -0.251

# query: sensor-assay potency score (higher = more potent) | item TAGTTCTGTATTCATGAAGCTT | system: S100A11
-0.971

----------
Listed here: items and their measured sensor-assay potency score (higher = more potent).
molecular target: ACOT6; assay: pooled miR-30 sensor sort-seq; sequence = guide strand; details: shRNA
Respond numerically, and do not add a unit to the figure.

Before answering, review these 3 worked examples.
- biopolymer sequence: "TAATGTAGAGGAGCTACTGTGT"
  study target: "ACOT6"
  data value: 0.0472
- biopolymer sequence: "TTGGTGATTGTGTTCCTCCAGT"
  study target: "ACOT6"
  data value: -0.204
- biopolymer sequence: "TTCTGGGTAACAGATTATCTGG"
  study target: "ACOT6"
  data value: -1.27

Moving on to another sequence below.
Would you mind telling me what sensor-assay potency score (higher = more potent) value was observed for TATCCTTGTAATGTAGAGGAGC ?
-0.764

----------
Here, each record is paired with measured sensor-assay potency score (higher = more potent) data.
target: KCNK6; assay: pooled miR-30 sensor sort-seq; sequence = guide strand; conditions: shRNA
Give the figure by itself; no unit, no explanation.

Solved cases (3 shown):
- biopolymer sequence: "TAGAAGGCATCCAAGAAGCTCC"
  study target: "KCNK6"
  data value: -0.185
- biopolymer sequence: "AAGGCATCCAAGAAGCTCCAGG"
  study target: "KCNK6"
  data value: -0.209
- biopolymer sequence: "TTAGCAAGCACGACCCGCCCCA"
  study target: "KCNK6"
  data value: -0.345

Consider the sequence shown here: TCATCCGCATTGAAACTGGCAG What is its recorded sensor-assay potency score (higher = more potent)?
-0.75

Could you do the same for TTGTGTACCCATAGCCCACGGT , please?
-0.627

// query: TAGACTGTGACCAGCACCTTGT
-0.385

Also, TCGGAGCCTGGCTTCGTGCGGC please.
-0.634

Consider next the sequence TGGAGGTCGGACACGTGGCGGA in the same way.
-1.12

----------
Entries annotated with measured sensor-assay potency score (higher = more potent)
biological target: HIST1H4A; test: pooled miR-30 sensor sort-seq; sequence = guide strand; details: shRNA

// below: answered sequences
- biopolymer sequence: "AACACCTTGAGCACCCCGCGAG"
  data value: -0.99
- biopolymer sequence: "TATAGGTGACAGCGTCACGGAT"
  data value: -1.01
- biopolymer sequence: "ATGTTGTCACGCAACACCTTGC"
  data value: -1.02
- biopolymer sequence: "TCTCCTCGTAGATCAGACCAGA"
  data value: -0.957
- biopolymer sequence: "TGACTGTCTTGCGCTTGGCGTG"
  data value: -1.68

Consider the sequence TGTCACGCAACACCTTGCGGTG and give its measured sensor-assay potency score (higher = more potent).
-1.69

One more sequence: TCACGCAACACCTTGCGGTGGC
0.266

What would you report for TAGACCACGTCCATGGCAGTGA ?
-0.363

What do you get for AAAAACACCTTGAGCACCCCGC ?
0.101
